Reported Inhibition by item:
System: Plasmodium falciparum
Assay: GSK_TCMDC: Inhibition of Plasmodium falciparum 3D7 in whole red blood cells, using parasite LDH activity as an index of growth. Test compounds present at 2uM
Format: functional

compound: CCN(CC)CCN(Cc1ccc(-c2ccc(C(F)(F)F)cc2)cc1)C(=O)Cn1c(CCc2cccc(F)c2F)nc(=O)c2sccc21.O=C(O)C(O)C(O)C(=O)O
unit.abbreviation: %
Inhibition: 96
--
compound: COc1ccc2ncc(Cl)c(CCN3CC[C@@H](CNCc4cc5c(cn4)OCS5)C3)c2n1.Cl
unit.abbreviation: %
Inhibition: 99
--
compound: O=S(=O)(c1c(Cl)cc(Cl)cc1Cl)N1CCCCC(c2ccc(C(F)(F)F)cc2)=N1
unit.abbreviation: %
Inhibition: 98
--
compound: O=C(Nc1cccc(-c2ccc(CN3CCCC3)cc2)c1)c1ccc(Cl)cc1.O=C(O)C(F)(F)F
unit.abbreviation: %
Inhibition: 100
--
compound: O=C(NCCCN1CCCC1=O)c1cnc(N2CCC(Oc3ccccc3)CC2)c(Cl)c1
unit.abbreviation: %
Inhibition: 97
--
compound: Cc1cccc2nc(-c3ccc(-c4cccc(CNCCc5ccncc5)c4)s3)[nH]c12.O=C(O)C(F)(F)F
unit.abbreviation: %
Inhibition: 100
--
compound: COc1ccc2nccc([C@@H](O)CN3CCC(NCc4ccc5c(c4)sc(=O)n5C)CC3)c2c1.O=C(O)C(=O)O
unit.abbreviation: %
Inhibition: 100
--
compound: O=C(Nc1ccc(Cn2ncc(N3CCNCC3)c(Cl)c2=O)cc1)Nc1ccc(-c2ccccc2)cc1.O=C(O)C(F)(F)F
unit.abbreviation: %
Inhibition: 98
--
compound: CC(c1cccc(Nc2nccc(-c3c(-c4cccc(NC(=O)c5c(F)cccc5F)c4)nn4ccccc34)n2)c1)S(C)(=O)=O (stereo not drawn)
unit.abbreviation: %
Inhibition: 98
--
compound: COc1cccc(CNC(=O)c2cccc(-c3cccc(CN4CCC(N5CCCC5)CC4)c3)n2)c1.O=C(O)C(F)(F)F
unit.abbreviation: %
Inhibition: 100
--
compound: CCCCCCN1CCCN(Cc2ccc(C(=O)Nc3ccc(CC)cc3)cc2)CC1.O=C(O)C(F)(F)F
unit.abbreviation: %
Inhibition: 97
--
compound: COc1cccc(CCc2nc3c(N4CCC(Cc5ccccc5)CC4)cccc3n2CC2CNCCO2)c1.O=C(O)C(F)(F)F (stereo not drawn)
unit.abbreviation: %
Inhibition: 94
--
compound: Cc1[nH]c(C)c(-c2ccc(-c3ccc(Cl)cc3)nc2)c(=O)c1Cl
unit.abbreviation: %
Inhibition: 95
